test system: RSK2(Kin.Dom.2-C-terminal); construct: gene RPS6KA3; conditions: concentration: 1 μM, replicates: in singlicate; n = 1;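 also: KINOMEscan kinase panel screen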
Below, each of the molecules is paired with its reported %Inh value.
Lab book: enter the figure in %, no units written.

// known answers, use as guide
# Molecule, Measurement Target, Observed Result
data = [
    ("O=C(Nc1n[nH]c2nc(-c3ccco3)c(Br)cc12)C1CCN(Cc2ccccc2)C1.O=C(O)[C@H](O)[C@@H](O)C(=O)O (stereo not drawn)", "RSK2(Kin.Dom.2-C-terminal)", 0),
    ("CC(C)c1ccc(O)cc1Nc1ccnc2ccc(C(F)(F)F)cc12", "RSK2(Kin.Dom.2-C-terminal)", 10),
    ("COc1ccc(Nc2nccc(NCCNC(=O)Nc3cc(C)ccc3C)n2)cc1", "RSK2(Kin.Dom.2-C-terminal)", 9),
    ("COc1ccc(CSc2nnc(-c3ccc4ncsc4c3)o2)cc1C(F)(F)F", "RSK2(Kin.Dom.2-C-terminal)", 0),
    ("Cc1c(Cn2c(C)c(C)n3c(=O)cc(N4CCOCC4)nc23)cccc1C(F)(F)F", "RSK2(Kin.Dom.2-C-terminal)", 2),
    ("COc1ccc(CSc2nnc(-c3ccc4c(c3)CCO4)o2)cc1", "RSK2(Kin.Dom.2-C-terminal)", 3),
    ("COc1ccc(CSc2nnc(-c3ccc4nccn4c3)o2)cc1C(F)(F)F", "RSK2(Kin.Dom.2-C-terminal)", 10),
    ("CNCc1ccc2nc(NC(=O)c3ccc(C(C)(C)C)cc3)cn2c1", "RSK2(Kin.Dom.2-C-terminal)", 37),
]

Request: State the recorded %Inh for this entry: `Cc1ccccc1Cn1ccn2c(=O)cc(N3CCOCC3)nc12`
Response: 20

Request: State the recorded %Inh for this entry: `Nc1nccc(-c2c(-c3ccc(F)cc3)ncn2C2CCN(Cc3ccccc3)CC2)n1`
Response: 0

Request: State the recorded %Inh for this entry: `CSc1ccc(-c2nc3n(c2-c2ccncc2)CCC3)cc1`
Response: 20

Request: State the recorded %Inh for this entry: `FC(F)(F)c1ccccc1-c1cc(-c2c[nH]nc2-c2ccccn2)ccn1`
Response: 0

Request: State the recorded %Inh for this entry: `COc1ccc2cc(-c3nc(-c4ccccc4C(C)C)[nH]c3-c3ccncc3)ccc2c1`
Response: 18

Request: State the recorded %Inh for this entry: `O=C(Nc1n[nH]c2nc(-c3cccs3)c(Br)cc12)C1CCCC1`
Response: 0

Request: State the recorded %Inh for this entry: `Nc1ncnc2occ(-c3ccc4c(c3)CCN4C(=O)Cc3cc(F)ccc3F)c12`
Response: 7

Request: State the recorded %Inh for this entry: `Cl.Cl.Cl.N#Cc1ccc(CCNc2nccc(-c3cccc(CN4CCNCC4)c3)n2)cc1`
Response: 0

Request: State the recorded %Inh for this entry: COc1ccc(Nc2nccc(N3CCC(NC(=O)C(C)c4ccc(Cl)cc4)CC3)n2)cc1 (stereo not drawn)
Response: 99.4

Request: State the recorded %Inh for this entry: `CC(C)c1cc(-c2ccc3c(N)n[nH]c3c2)nc(N)n1`
Response: 0
